The measurements presented in this section are drawn from ChEMBL document CHEMBL1961873.

Listing of entries alongside the reported inhibition.
# assaySystem: Epidermal growth factor receptor (Homo sapiens) (UniProt P00533);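 note: values are mean inhibition figures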
# Sequence (P00533 whole entry): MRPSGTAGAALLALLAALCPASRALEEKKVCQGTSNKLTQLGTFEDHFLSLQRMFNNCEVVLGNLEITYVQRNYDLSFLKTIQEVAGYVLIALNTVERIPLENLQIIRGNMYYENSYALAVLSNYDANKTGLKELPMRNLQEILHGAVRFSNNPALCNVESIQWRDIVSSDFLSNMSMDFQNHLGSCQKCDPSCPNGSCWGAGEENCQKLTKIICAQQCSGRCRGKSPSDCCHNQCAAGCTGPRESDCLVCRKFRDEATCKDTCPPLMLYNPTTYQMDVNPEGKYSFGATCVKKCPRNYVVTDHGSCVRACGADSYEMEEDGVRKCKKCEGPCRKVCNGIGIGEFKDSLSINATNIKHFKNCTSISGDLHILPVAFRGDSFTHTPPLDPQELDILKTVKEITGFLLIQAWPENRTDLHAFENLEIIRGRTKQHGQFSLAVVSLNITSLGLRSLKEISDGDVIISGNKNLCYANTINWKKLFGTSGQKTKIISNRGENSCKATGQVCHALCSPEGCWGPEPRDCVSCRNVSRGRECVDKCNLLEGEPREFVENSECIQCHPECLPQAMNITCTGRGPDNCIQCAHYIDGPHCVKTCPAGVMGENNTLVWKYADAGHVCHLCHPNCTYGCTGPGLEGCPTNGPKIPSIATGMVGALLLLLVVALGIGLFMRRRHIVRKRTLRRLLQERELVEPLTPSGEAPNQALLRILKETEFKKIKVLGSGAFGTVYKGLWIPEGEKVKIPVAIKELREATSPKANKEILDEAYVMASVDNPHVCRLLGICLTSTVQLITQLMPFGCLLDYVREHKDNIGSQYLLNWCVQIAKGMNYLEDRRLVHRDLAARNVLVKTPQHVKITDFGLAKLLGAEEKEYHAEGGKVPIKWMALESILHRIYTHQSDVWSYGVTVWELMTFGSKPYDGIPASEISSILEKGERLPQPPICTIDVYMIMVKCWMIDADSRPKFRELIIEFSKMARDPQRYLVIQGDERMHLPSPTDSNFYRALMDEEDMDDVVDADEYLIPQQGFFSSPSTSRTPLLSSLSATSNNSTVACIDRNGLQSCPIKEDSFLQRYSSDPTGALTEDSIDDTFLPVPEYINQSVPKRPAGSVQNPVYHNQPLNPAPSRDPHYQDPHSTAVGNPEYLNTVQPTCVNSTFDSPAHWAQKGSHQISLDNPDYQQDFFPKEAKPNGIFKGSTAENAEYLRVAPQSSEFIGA
# experimentalContext: at 1 µM

>  <compound>
Cc1ccc(C(=O)NC2CCC2)cc1-c1ccc(C(=O)NCC2CC2)cc1

>  <inhibition, %>
7.15

$$$$
>  <compound>
C/C(Nc1ccc(S(N)(=O)=O)cc1)=C1/C(=O)Nc2ccccc21

>  <inhibition, %>
2.48

$$$$
>  <compound>
Fc1ccc(-c2nc3n(c2-c2ccncc2)CCS3)cc1

>  <inhibition, %>
3.39

$$$$
>  <compound>
Cc1ccc(C(=O)NC(C)C)cc1-c1ccc(C(=O)NCC2CC2)cc1

>  <inhibition, %>
1.34

$$$$
>  <compound>
CCC(=O)Nc1ccc(C)c(-c2ccc(C(=O)NCC3CC3)cc2)c1

>  <inhibition, %>
6.12

$$$$
>  <compound>
C[C@@H](Oc1cc(-n2cnc3ccc(OCC4CCN(C)CC4)cc32)sc1C(N)=O)c1ccccc1Cl

>  <inhibition, %>
3.73

$$$$
>  <compound>
CN1CCN(CCCNc2nc3ccc(Oc4ccc(NC(=O)Nc5cc(C(F)(F)F)ccc5F)cc4)cc3[nH]2)CC1

>  <inhibition, %>
0.24

$$$$
>  <compound>
CN(c1ccc(NC(=O)Nc2c(Cl)cccc2Cl)cc1)c1ccnc(Nc2cccc(CS(C)(=O)=O)c2)n1

>  <inhibition, %>
5.8

$$$$
>  <compound>
O=C1Nc2ccc(I)cc2C1=Cc1cc(Br)c(O)c(Br)c1

>  <inhibition, %>
-1.18

$$$$
>  <compound>
COc1cc2ncn(-c3cc(OCc4ccccc4C(F)(F)F)c(C(C)=O)s3)c2cc1OC

>  <inhibition, %>
1.81

$$$$
>  <compound>
Fc1ccc(-c2c(-c3ccncc3)nc3n2CCS3)cc1

>  <inhibition, %>
-0.06

$$$$
>  <compound>
O=C(NCC1CC1)c1ccc(-c2cccc(C(=O)NC3CC3)c2)cc1

>  <inhibition, %>
0.85

$$$$
>  <compound>
CN(C)CCOc1ccc(-c2cc(-c3ccc4c(c3)CCC4=NO)c(-c3ccncc3)o2)cc1

>  <inhibition, %>
7.65

$$$$
>  <compound>
NC(=O)c1cc(-c2ccncc2)cc(-c2ccccc2)c1N

>  <inhibition, %>
18

$$$$
>  <compound>
C[C@@H](Oc1cc(-n2cnc3ccc(OC4CCN(C)CC4)cc32)sc1C(N)=O)c1ccccc1Cl

>  <inhibition, %>
3.58

$$$$
>  <compound>
CN(C)c1ccc2c(c1)/C(=C/Nc1ccc(S(N)(=O)=O)cc1)C(=O)N2

>  <inhibition, %>
11.9

$$$$
>  <compound>
O=C(Nc1n[nH]c2nc(-c3ccc(O)cc3)c(Br)cc12)C1CC1

>  <inhibition, %>
6.97

$$$$
>  <compound>
CCc1cccc(CC)c1/C=C/c1cncc(C(=O)NC)c1

>  <inhibition, %>
6.32

$$$$
>  <compound>
CS(=O)(=O)CCNCc1cc(-c2cc3c(Nc4ccc(OCc5cccc(F)c5)c(Cl)c4)ncnc3s2)cs1

>  <inhibition, %>
83.7

$$$$
>  <compound>
CNC(=O)c1cncc(/C=C/c2c(C)cccc2C)c1

>  <inhibition, %>
5.96

$$$$
>  <compound>
NS(=O)(=O)c1ccc(Nc2cc(-c3ccc(O)c(F)c3)n[nH]2)cc1

>  <inhibition, %>
3.68

$$$$
>  <compound>
c1ccc(Oc2ccc(Nc3ncc(-c4ccccc4)o3)cc2)cc1

>  <inhibition, %>
3.79

$$$$
>  <compound>
COc1cc(C)c(N(C)C(=O)CN(C)C)cc1Nc1nc(Nc2cccc(F)c2C(N)=O)c2cc[nH]c2n1

>  <inhibition, %>
-1.47

$$$$
>  <compound>
O=C(Nc1n[nH]c2cc(-c3cc(F)ccc3F)ccc12)C1CC1

>  <inhibition, %>
2.02

$$$$
>  <compound>
COC(=O)Nc1nc2ccc(Sc3ccc(NC(=O)Nc4cc(C(F)(F)F)ccc4F)cc3)cc2[nH]1

>  <inhibition, %>
2.67

$$$$
>  <compound>
NS(=O)(=O)c1ccc(N/N=C2\C(=O)Nc3ccc(-c4cnco4)cc32)cc1

>  <inhibition, %>
12.9

$$$$
>  <compound>
CCS(=O)(=O)c1ccc(OC)c(Nc2ncc(-c3cccc(-c4ccccc4F)c3)o2)c1

>  <inhibition, %>
23.3

$$$$
>  <compound>
Fc1ccc(-c2ncn(C3CCNCC3)c2-c2ccnc(Oc3ccc(F)c(F)c3)n2)cc1

>  <inhibition, %>
-0.79

$$$$
>  <compound>
COc1ccc2cc(-c3c(-c4ccncc4)nc(-c4ccc([S+](C)[O-])cc4C)n3C)ccc2c1 (stereo unspecified)

>  <inhibition, %>
7.54

$$$$
>  <compound>
Clc1ccc(CNc2nccc(-c3cnn4ncccc34)n2)cc1

>  <inhibition, %>
3.24

$$$$
>  <compound>
O=C1Nc2ccccc2/C1=C/Nc1ccc(-n2cncn2)cc1

>  <inhibition, %>
4.08

$$$$

* * *

# assaySystem: Vascular endothelial growth factor receptor 1 (Homo sapiens)
# experimentalContext: at 1 µM
# Description: GSK_PKIS: FLT1 mean inhibition at 1 uM [Nanosyn]
Returns the class for an entry based on its inhibition. Class ranges: bucket A = under 1%, bucket B = from 1% up to 2%, bucket C = 2% and over

>  <molecule>
O=C(Nc1ccc(Oc2ccc3[nH]c(NC(=O)c4ccccc4)nc3c2)cc1)Nc1cc(C(F)(F)F)ccc1F

>  <assaySystem>
Vascular endothelial growth factor receptor 1 (Homo sapiens)

>  <discreteLabel>
bucket C

$$$$
>  <molecule>
COc1ccc(-c2ccc3c(NC(=O)C4CC4)n[nH]c3n2)cc1

>  <assaySystem>
Vascular endothelial growth factor receptor 1 (Homo sapiens)

>  <discreteLabel>
bucket A

$$$$
>  <molecule>
COc1cccc(/C=N/Nc2ncnc3c2cnn3-c2cccc(OC)c2)c1

>  <assaySystem>
Vascular endothelial growth factor receptor 1 (Homo sapiens)

>  <discreteLabel>
bucket A

$$$$
>  <molecule>
Nc1nccc(-c2c(-c3ccc(F)cc3)ncn2C2CCC(O)CC2)n1 (stereo not given)

>  <assaySystem>
Vascular endothelial growth factor receptor 1 (Homo sapiens)

>  <discreteLabel>
bucket B

$$$$
>  <molecule>
COc1cc(C)c(N(C)C(=O)CN(C)C)cc1Nc1nc(Nc2cccc(F)c2C(N)=O)c2cc[nH]c2n1

>  <assaySystem>
Vascular endothelial growth factor receptor 1 (Homo sapiens)

>  <discreteLabel>
bucket B

$$$$
>  <molecule>
O=C(NCC1CC1)c1ccc(-c2cccc(C(=O)NC3CC3)c2)cc1

>  <assaySystem>
Vascular endothelial growth factor receptor 1 (Homo sapiens)

>  <discreteLabel>
bucket C

$$$$
>  <molecule>
NS(=O)(=O)c1ccc(N/N=C2\C(=O)Nc3ccc(C(=O)NCCCn4ccnc4)cc32)cc1

>  <assaySystem>
Vascular endothelial growth factor receptor 1 (Homo sapiens)

>  <discreteLabel>
bucket C

$$$$
>  <molecule>
COc1cc2ncn(-c3cc(OCc4ccccc4C(F)(F)F)c(C(C)=O)s3)c2cc1OC

>  <assaySystem>
Vascular endothelial growth factor receptor 1 (Homo sapiens)

>  <discreteLabel>
bucket B

$$$$
>  <molecule>
COc1cccc(-n2cnc3c(N/N=C/c4ccncc4)ncnc32)c1

>  <assaySystem>
Vascular endothelial growth factor receptor 1 (Homo sapiens)

>  <discreteLabel>
bucket B

$$$$
>  <molecule>
CCc1nccc2c1nc(-c1nonc1N)n2CC

>  <assaySystem>
Vascular endothelial growth factor receptor 1 (Homo sapiens)

>  <discreteLabel>
bucket B

$$$$

* * *

# assaySystem: MAP kinase-activated protein kinase 3 (Homo sapiens) (UniProt Q16644)
# Sequence (Q16644 whole entry, looked up): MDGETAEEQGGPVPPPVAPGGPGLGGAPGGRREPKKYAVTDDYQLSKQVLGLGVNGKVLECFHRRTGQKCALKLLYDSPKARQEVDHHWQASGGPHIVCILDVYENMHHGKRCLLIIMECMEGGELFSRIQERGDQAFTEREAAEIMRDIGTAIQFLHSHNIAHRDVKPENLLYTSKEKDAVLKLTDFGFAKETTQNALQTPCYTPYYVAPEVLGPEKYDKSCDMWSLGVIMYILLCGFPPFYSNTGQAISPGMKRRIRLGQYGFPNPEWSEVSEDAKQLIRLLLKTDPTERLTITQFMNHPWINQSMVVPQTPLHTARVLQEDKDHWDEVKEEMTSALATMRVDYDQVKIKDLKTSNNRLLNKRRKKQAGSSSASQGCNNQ
# experimentalContext: at 1 µM
# Description: GSK_PKIS: MAPKAPK3 mean inhibition at 1 uM [Nanosyn]

>  <molecule>
Cc1ccc(NC(=O)c2ccoc2)cc1-c1ccc(C(=O)NCC2CC2)cc1

>  <unitAbbrev>
%

>  <inhibition>
30.9

$$$$
>  <molecule>
NS(=O)(=O)c1ccc(N/N=C2\C(=O)Nc3ccc(C(=O)NCCCn4ccnc4)cc32)cc1

>  <unitAbbrev>
%

>  <inhibition>
10.6

$$$$
>  <molecule>
Fc1ccc(-c2nc3n(c2-c2ccncc2)CCS3)cc1

>  <unitAbbrev>
%

>  <inhibition>
19.8

$$$$
>  <molecule>
CN(C)CCCNc1nccc(-c2c(-c3ccc(F)cc3)nn3cc(C(F)(F)F)ccc23)n1

>  <unitAbbrev>
%

>  <inhibition>
22.7

$$$$
>  <molecule>
CNC(=O)c1cncc(/C=C/c2c(C)cccc2C)c1

>  <unitAbbrev>
%

>  <inhibition>
0.25

$$$$
>  <molecule>
NCc1ccc(-n2c(-c3nonc3N)nc3cnccc32)cc1

>  <unitAbbrev>
%

>  <inhibition>
4.65

$$$$
>  <molecule>
O=C(Nc1n[nH]c2cc(-c3ccccc3)ccc12)C1CC1

>  <unitAbbrev>
%

>  <inhibition>
4.31

$$$$
>  <molecule>
COc1ccc2cc(-c3c(-c4ccncc4)nc(-c4ccc([S+](C)[O-])cc4C)n3C)ccc2c1 (stereo not drawn)

>  <unitAbbrev>
%

>  <inhibition>
-5.38

$$$$
>  <molecule>
COC(=O)Nc1nc2ccc(Sc3ccc(NC(=O)Nc4cc(C(F)(F)F)ccc4F)cc3)cc2[nH]1

>  <unitAbbrev>
%

>  <inhibition>
12.6

$$$$
>  <molecule>
Clc1ccc(CNc2nccc(-c3cnn4ncccc34)n2)cc1

>  <unitAbbrev>
%

>  <inhibition>
7.89

$$$$
>  <molecule>
O=C(Nc1ccc(Oc2ccc3[nH]c(NC(=O)c4ccccc4)nc3c2)cc1)Nc1cc(C(F)(F)F)ccc1F

>  <unitAbbrev>
%

>  <inhibition>
16.7

$$$$
>  <molecule>
Fc1ccc(-c2ncn(C3CCNCC3)c2-c2ccnc(Oc3ccc(F)c(F)c3)n2)cc1

>  <unitAbbrev>
%

>  <inhibition>
31.3

$$$$
>  <molecule>
CCc1nccc2c1nc(-c1nonc1N)n2CC

>  <unitAbbrev>
%

>  <inhibition>
2.5

$$$$
>  <molecule>
NC(=O)c1cc(-c2ccc(F)cc2)cc(-c2ccncc2)c1N

>  <unitAbbrev>
%

>  <inhibition>
5.82

$$$$
>  <molecule>
COc1ccc(-c2ccc3c(NC(=O)C4CC4)n[nH]c3n2)cc1

>  <unitAbbrev>
%

>  <inhibition>
3.8

$$$$
>  <molecule>
COc1cc2ncn(-c3cc(OCCc4ccccc4)c(C(N)=O)s3)c2cc1OC

>  <unitAbbrev>
%

>  <inhibition>
4.28

$$$$
>  <molecule>
NS(=O)(=O)c1ccc(Nc2cc(-c3ccc(O)c(F)c3)n[nH]2)cc1

>  <unitAbbrev>
%

>  <inhibition>
-0.99

$$$$
>  <molecule>
COc1cc(Nc2ncc(-c3ccccc3)o2)cc(OC)c1OC

>  <unitAbbrev>
%

>  <inhibition>
-2.22

$$$$
>  <molecule>
CN1CCN(CCCNc2nc3ccc(Oc4ccc(NC(=O)Nc5cc(C(F)(F)F)ccc5F)cc4)cc3[nH]2)CC1

>  <unitAbbrev>
%

>  <inhibition>
18.3

$$$$
>  <molecule>
COc1cc2ncn(-c3cc(OCc4ccccc4C(F)(F)F)c(C(C)=O)s3)c2cc1OC

>  <unitAbbrev>
%

>  <inhibition>
2.6

$$$$
>  <molecule>
C#Cc1cccc(Nc2ncnc3ccc(OCCCCNCCS(C)(=O)=O)cc23)c1

>  <unitAbbrev>
%

>  <inhibition>
4.44

$$$$
>  <molecule>
NC(=O)c1cc(-c2ccncc2)cc(-c2ccccc2)c1N

>  <unitAbbrev>
%

>  <inhibition>
-0.36

$$$$
>  <molecule>
COc1cccc(-n2cnc3c(N/N=C/c4ccncc4)ncnc32)c1

>  <unitAbbrev>
%

>  <inhibition>
-2.07

$$$$
>  <molecule>
O=C(NCC1CC1)c1ccc(-c2cccc(C(=O)NC3CC3)c2)cc1

>  <unitAbbrev>
%

>  <inhibition>
3.94

$$$$
>  <molecule>
COc1cc(Nc2ncc3c(C)nc(-c4cccc(Oc5ccccc5)c4)n3n2)cc(OC)c1OC

>  <unitAbbrev>
%

>  <inhibition>
7.79

$$$$
>  <molecule>
C/C(Nc1ccc(S(N)(=O)=O)cc1)=C1/C(=O)Nc2ccccc21

>  <unitAbbrev>
%

>  <inhibition>
-0.11

$$$$
>  <molecule>
NC(=O)c1ccc(Oc2nccc(-c3c(-c4ccc(F)cc4)ncn3C3CCNCC3)n2)cc1

>  <unitAbbrev>
%

>  <inhibition>
30.8

$$$$
>  <molecule>
O=C(Nc1n[nH]c2nc(-c3ccc(O)cc3)c(Br)cc12)C1CC1

>  <unitAbbrev>
%

>  <inhibition>
5.6

$$$$
